- Test system: HCC-78
- Assay name: relative viability (nuclei count vs DMSO), 5 days (fraction); higher = more cells survive
- Condition set: first compound 1.265 µM
Value kind: relative viability
Answers are plain numbers.

[[record]]
compound = "Clc1ccc(Nc2nnc(Cc3ccncc3)c3ccccc23)cc1 [Vatalanib] + COc1cc2c(Oc3ccc(NC(=O)C4(C(=O)Nc5ccc(F)cc5)CC4)cc3F)ccnc2cc1OCCCN1CCOCC1 [Foretinib] (partner 0.25 µM)"
tested_target = "HCC-78"
value_kind = "relative viability"
reported_measurement = 0.503


Query: Return reported relative viability; argument: COc1cc(N2CCC(C(N)=O)CC2)ccc1Nc1nc(N)c(Cl)c(Nc2ccccc2S(=O)(=O)C(C)C)n1 [HG-5-88-01] + CC1(C)CCC(c2ccc(Cl)cc2)=C(CN2CCN(c3ccc(C(=O)NS(=O)(=O)c4ccc(N[C@H](CCN5CCOCC5)CSc5ccccc5)c(S(=O)(=O)C(F)(F)F)c4)cc3)CC2)C1 [Navitoclax] (partner 0.5 µM)
Result: 0.158

* * *

- Tested on: NCI-H1650
- Assay name: relative viability (nuclei count vs DMSO), 5 days (fraction); higher = more cells survive
- Condition set: first compound 0.04 µM
Checkbox rule: relative viability lower than 0.4 = Yes; relative viability not lower than 0.4 = No.

Reference set (3 entries):
[[record]]
compound = "COc1cc(N2CCC(C(N)=O)CC2)ccc1Nc1nc(N)c(Cl)c(Nc2ccccc2S(=O)(=O)C(C)C)n1 [HG-5-88-01] + Cc1nc(Nc2ncc(C(=O)Nc3c(C)cccc3Cl)s2)cc(N2CCN(CCO)CC2)n1 [Dasatinib] (partner 0.075 µM)"
tested_target = "NCI-H1650"
category_label = "Yes"

[[record]]
compound = "Clc1ccc(Nc2nnc(Cc3ccncc3)c3ccccc23)cc1 [Vatalanib] + CC(=O)c1c(C)c2cnc(Nc3ccc(N4CCNCC4)cn3)nc2n(C2CCCC2)c1=O [Palbociclib] (partner 0.5 µM)"
tested_target = "NCI-H1650"
category_label = "Yes"

[[record]]
compound = "COc1cc(N2CCC(C(N)=O)CC2)ccc1Nc1nc(N)c(Cl)c(Nc2ccccc2S(=O)(=O)C(C)C)n1 [HG-5-88-01] + CC1(C)CCC(c2ccc(Cl)cc2)=C(CN2CCN(c3ccc(C(=O)NS(=O)(=O)c4ccc(N[C@H](CCN5CCOCC5)CSc5ccccc5)c(S(=O)(=O)C(F)(F)F)c4)cc3)CC2)C1 [Navitoclax] (partner 0.5 µM)"
tested_target = "NCI-H1650"
category_label = "No"


Query: Please check: relative viability for COc1cc(N2CCC(C(N)=O)CC2)ccc1Nc1nc(N)c(Cl)c(Nc2ccccc2S(=O)(=O)C(C)C)n1 [HG-5-88-01] + O=C(c1cc(Cc2n[nH]c(=O)c3ccccc23)ccc1F)N1CCN(C(=O)C2CC2)CC1 [Olaparib] (partner 8 µM) , strictly under 0.4 or not?
Result: No

Query: Now consider Clc1ccc(Nc2nnc(Cc3ccncc3)c3ccccc23)cc1 [Vatalanib] + CC1(C)CCC(c2ccc(Cl)cc2)=C(CN2CCN(c3ccc(C(=O)NS(=O)(=O)c4ccc(N[C@H](CCN5CCOCC5)CSc5ccccc5)c(S(=O)(=O)C(F)(F)F)c4)cc3)CC2)C1 [Navitoclax] (partner 0.5 µM) and answer again.
Result: No

Query: Now consider Clc1ccc(Nc2nnc(Cc3ccncc3)c3ccccc23)cc1 [Vatalanib] + COc1cc2c(Oc3ccc(NC(=O)C4(C(=O)Nc5ccc(F)cc5)CC4)cc3F)ccnc2cc1OCCCN1CCOCC1 [Foretinib] (partner 0.25 µM) and answer again.
Result: No

Query: Now consider Clc1ccc(Nc2nnc(Cc3ccncc3)c3ccccc23)cc1 [Vatalanib] + CCNC(=O)c1noc(-c2cc(C(C)C)c(O)cc2O)c1-c1ccc(CN2CCOCC2)cc1 [Luminespib] (partner 0.01 µM) and answer again.
Result: Yes

Query: Now consider C[C@@H]1CN(CC(=O)Nc2ccc3c(c2)Cc2cccc(-c4cc(=O)cc(N5CCOCC5)o4)c2S3)C[C@H](C)O1 + O=C(c1cc(Cc2n[nH]c(=O)c3ccccc23)ccc1F)N1CCN(C(=O)C2CC2)CC1 [Olaparib] (partner 8 µM) and answer again.
Result: No

Query: Now consider C[C@@H]1CN(CC(=O)Nc2ccc3c(c2)Cc2cccc(-c4cc(=O)cc(N5CCOCC5)o4)c2S3)C[C@H](C)O1 + Nc1ncn([C@H]2C[C@H](O)[C@@H](CO)O2)c(=O)n1 [Decitabine] (partner 2 µM) and answer again.
Result: No

Query: Now consider Clc1ccc(Nc2nnc(Cc3ccncc3)c3ccccc23)cc1 [Vatalanib] + Cc1nc(Nc2ncc(C(=O)Nc3c(C)cccc3Cl)s2)cc(N2CCN(CCO)CC2)n1 [Dasatinib] (partner 0.075 µM) and answer again.
Result: Yes

Query: Now consider Clc1ccc(Nc2nnc(Cc3ccncc3)c3ccccc23)cc1 [Vatalanib] + CS(=O)(=O)CCNCc1ccc(-c2ccc3ncnc(Nc4ccc(OCc5cccc(F)c5)c(Cl)c4)c3c2)o1 [Lapatinib] (partner 2 µM) and answer again.
Result: No
